Values from PubChem BioAssay AID1996

MEASUREMENT_SETUP: buffer; pH 7.4; 200.0 µM
PARAMETER: solubility kinetic (µg/mL)
Kindly answer with a numeric value in µg/mL, unit omitted.

The value of solubility kinetic measured for the compound COC(=O)c1ccc(NC(=O)c2ccc3nsnc3c2)cc1 turned out to be 1.3

Per the record, CC(C)[N+](C)(C)CC#CC(O)(c1ccccc1)c1ccccc1.[Br-] has solubility kinetic of 51

Query CC(=O)c1nc2ccccc2n1Cc1ccccc1 yields solubility kinetic of 14.5

====

Record form. Attribute: log10(solubility kinetic). Fill in for each entry.
MEASUREMENT_SETUP: buffer; pH 7.4; 200.0 µM
All values: base-10 log of solubility kinetic in µg/mL.

log10(solubility kinetic) in this record for C#CCOc1ccc2c(c1)c(C(C)=O)c(C)n2Cc1ccccc1 : 0.00

Value of measured log10(solubility kinetic) for the entry Cc1ccccc1C1NC(=O)c2ccccc2O1 (configuration not stated) : 1.26

Per the records, this compound ( CSc1nccc(NC(=O)c2ccc(C(C)(C)C)cc2)n1 ) has log10(solubility kinetic) equal to 0.62

log10(solubility kinetic) in this record for Cc1ccc(NC(=O)Nc2cc(S(C)(=O)=O)ccc2Cl)cc1 : 0.04

Please fill in: log10(solubility kinetic) reported for Cc1ccccc1OC(C)C(=O)NCCC1=CCCCC1 (configuration not stated) = 1.29

Kindly note the recorded log10(solubility kinetic) for Cc1ccc(CN2CCN(C3CCCC3)C(CCO)C2)s1 (configuration not stated) , which is 1.64
